Taken from PubChem BioAssay AID1224900.

- Tested on: MDA-MB-231 viability, PrestoBlue fluorescence
- measurement_description: growth inhibition of MDA-MB-231 cells, dose response, mTOR inhibitor project (AID 1224900)
assay_metric: EC50

Requested read-out EC50, target or system MDA-MB-231 viability, PrestoBlue fluorescence, entry CCOC(Cn1nc(-c2ccc3oc(N)nc3c2)c2c(N)ncnc21)OCC
72 nM
